method-description: Intrinsic clearance in human liver microsomes
Format: in vitro ADME
experimental-context: read-out: In vitro Clint
assay-metric: microsomal CLint (µL/min/mg)
The figure you give is taken to be in µL/min/mg; do not add the unit.

For the compound `O=C(c1nn([C@@H]2CCCN(CCN3CCOCC3)C2)c2c1CS(=O)(=O)c1cc(F)ccc1-2)N1CCOCC1` , what microsomal CLint is on record?
21

====

method-description: Intrinsic clearance in mouse liver microsomes
Assay type: in vitro ADME
experimental-context: read-out: In vitro Clint
Description: 36 CLint: intrinsic clearance in liver microsomes. h/m: human/mouse. Papp: apparent permeability. uPPB: 37 unbound plasma protein binding. […]
assay-metric: microsomal CLint (µL/min/mg)
Please reply with the bare figure in µL/min/mg and do not write the unit itself.

microsomal CLint lookup needed for `O=C(c1nn([C@@H]2CCCN(CCN3CCOCC3)C2)c2c1CS(=O)(=O)c1cc(F)ccc1-2)N1CCOCC1` , thanks.
35

Reference for the values: paper PMC4033217
